In this section we review reported minimum viability values for a set of compounds.
- TEST SUMMARY: MAGI-CCR5 and HeLa-R5-16 cytotoxicity, dose response, cytotoxicity control for HIV-1 fusion inhibitor project, cell-based, MAGI and MAGI-HeLa co-culture (AID 2286);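 also: cells exposed to compound for at least 64 h before ATP readout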;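 as to minimum viability: 100% = median of DMSO vehicle wells with no ATP signal meaning 0%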;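 as to viability: 100% = median of DMSO vehicle wells with no ATP signal meaning 0%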
- PROTOCOL CONDITIONS: MAGI-CCR5 cells viability, CellTiter-Glo ATP luminescence; measured here: MAGI minimum viability across doses; at 6.25 µM; stronger effect = lower value
All answers are understood in %, so give the number only.

Below are worked cases with known answers.
* O=C(Nc1ccc(C(=O)O)cc1)/C(=C\C=C\c1ccccc1)NC(=O)c1cccc(Br)c1 | 83.2
* CCOc1cc(Br)cc(C(c2c(C(=O)O)[nH]c3ccccc23)c2c(C(=O)O)[nH]c3ccccc23)c1O | 82.9
* CCOc1cc(/C=C2\C(=O)N(c3cccc(C(=O)O)c3)N=C2C(F)(F)F)ccc1OCC(=O)Nc1ccccc1OC | 85.3
* O=C(O)COc1ccccc1/C=N/NC(=O)CSc1nnc(SCc2cccc3ccccc23)s1 | 86.9

Summary for this compound, CSc1ccc(C(c2c(C(=O)O)[nH]c3ccccc23)c2c(C(=O)O)[nH]c3ccccc23)cc1 : minimum viability is 90.5

---

- System: MAGI-CCR5 cells viability, CellTiter-Glo ATP luminescence
- TEST SUMMARY: MAGI-CCR5 and HeLa-R5-16 cytotoxicity, dose response, cytotoxicity control for HIV-1 fusion inhibitor project, cell-based, MAGI and MAGI-HeLa co-culture (AID 2286);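 also: cells exposed to compound for at least 64 h before ATP readout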;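 as to viability: 100% = median of DMSO vehicle wells with no ATP signal meaning 0%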
- PROTOCOL CONDITIONS: measured here: MAGI + HeLa-R5-16 co-culture viability
Entries and their measured CC50 follow.
Unit µM implied. Number only.

Sure, the documented CC50 for COc1ccc(C(=O)/C=C/c2cccc(OCc3ccccc3)c2)cc1CSCC(=O)O is 46.4

---

- TEST SUMMARY: MAGI-CCR5 and HeLa-R5-16 cytotoxicity, dose response, cytotoxicity control for HIV-1 fusion inhibitor project, cell-based, MAGI and MAGI-HeLa co-culture (AID 2286);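 also: cells exposed to compound for at least 64 h before ATP readout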;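 as to viability: 100% = median of DMSO vehicle wells with no ATP signal meaning 0%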
- PROTOCOL CONDITIONS: MAGI-CCR5 cells viability, CellTiter-Glo ATP luminescence; at 50 µM (top of the series)
Entries and their measured viability follow.
Provide only the numeric value, understood in %.

Example compounds with recorded viability:
* O=C(O)c1ccc(-c2ccc(/C=C3\NC(=O)N(Cc4ccc(Cl)cc4)C3=O)o2)cc1Cl | 107
* COc1ccc(OC)c(N2C(=O)/C(=C/c3ccco3)C(=O)NC2=S)c1 | 94.8
* COc1cc(/C=C2\C(=N)N3N=C(S(C)(=O)=O)SC3=NC2=O)cc(OC)c1OCCOc1cccc(C)c1 | 82.5
* Cc1cc(/C=C2/C(=N)N3C(=NC2=O)SN=C3S(C)(=O)=O)c(C)n1-c1ccccc1 | 104
* N#Cc1c(SCC(=O)Nc2nc3ccc(Br)cc3s2)sc2c(O)cc(=O)[nH]c12 | 83.3

Lookup result for Cc1cc(N2C(=O)C(O)=C(C(=O)c3cc4ccccc4o3)C2c2cccc(Br)c2)no1 (centres undefined) ; measured viability: 87.1

Entry N#Cc1c(-c2ccccc2)nc(SCc2ccc(Cl)cc2)[nH]c1=O , viability reported as 86.1

Measured viability of CC(C)c1ccc(OCC(=O)Nc2cccc(C(=O)Nc3ccccc3C(=O)O)c2)cc1 : 84

// sample O=C(O)COc1ccc(/C=N/NC(=O)c2ccc(-c3csc(Nc4ccc(Cl)cc4)n3)cc2)cc1 , its viability was 96.8

Reference source: PubChem BioAssay AID2286
